molecular target: human adenosine A2B receptor (Homo sapiens (Human)); test: Adenosine A2B Receptor Cyclic AMP GS Assay; conditions: HEK-293 cells expressing human A2B receptor; agonist NECA at 12 nM; cAMP accumulation (FRET); read-out: A2B_cAMP_EC50
readout: EC50

Quick one: EC50 for `Cn1ccc(Cc2nc3c(-c4cnco4)c(-c4cccc(C#N)c4)nc(N)n3n2)n1` ? < 0.01 µM

Given `CCNC(=O)c1cn2c(N)nc(-c3cccc(C#N)c3)c(C3CC3)c2n1` , state its recorded EC50. > 1 µM

Entry `CCNC(=O)c1cn2c(N)nc(-c3cccc(C#N)c3)c(-c3ccncc3C#N)c2n1` has what EC50? 0.01 to 0.1 µM

Given the entry `CCc1ncoc1-c1c(-c2cccc(C#N)c2)nc(N)n2nc(Cc3ccccn3)nc12` , report its measured EC50. < 0.01 µM

# input molecule: `CCNC(=O)c1nc2c(-c3cc(C)nc(C)c3)c(-c3ccccc3)nc(N)n2c1Br` ; wanted: its EC50 0.1 to 1 µM

Any idea what its EC50 is? The molecule is `CCNC(=O)c1cn2c(N)nc(-c3cccc(C#N)c3)c(-c3ccnc4c3OCCO4)c2n1` 0.01 to 0.1 µM

Which value of EC50 has been reported for N#Cc1cccc(-c2nc(N)n3nc(C(NCCO)c4ccccc4)nc3c2-c2ccncc2)c1 (centres unmarked) in the records? < 0.01 µM

Form field: reported EC50 of N#Cc1cccc(-c2nc(N)n3nc(C(Oc4ccccn4)c4ccccc4)nc3c2-c2ccncn2)c1 (centres unmarked) 0.01 to 0.1 µM

I have this molecule here, `Cc1ncoc1-c1c(-c2cccc(C#N)c2)nc(N)n2nc(Cc3ccn(C)n3)nc12` , and I need its recorded EC50. < 0.01 µM

Quick check: EC50 of N#Cc1cccc(-c2nc(N)n3nc(C(O)c4c(F)cccc4F)nc3c2-c2ccncn2)c1 (single isomer, unassigned) [Example 77] ? 0.01 to 0.1 µM

GET /values?readout=EC50&item= `Cc1ncoc1-c1c(-c2cccc(C#N)c2)nc(N)n2nc(Cc3ccccn3)nc12` < 0.01 µM

* * *

target: human adenosine A2B receptor (Homo sapiens (Human), UniProt P29275); test: Adenosine A2B Receptor Cyclic AMP GS Assay; conditions: HEK-293 cells expressing human A2B receptor; agonist NECA at 12 nM; cAMP accumulation (FRET); read-out: A2B_cAMP_EC50
Sequence (P29275 whole entry): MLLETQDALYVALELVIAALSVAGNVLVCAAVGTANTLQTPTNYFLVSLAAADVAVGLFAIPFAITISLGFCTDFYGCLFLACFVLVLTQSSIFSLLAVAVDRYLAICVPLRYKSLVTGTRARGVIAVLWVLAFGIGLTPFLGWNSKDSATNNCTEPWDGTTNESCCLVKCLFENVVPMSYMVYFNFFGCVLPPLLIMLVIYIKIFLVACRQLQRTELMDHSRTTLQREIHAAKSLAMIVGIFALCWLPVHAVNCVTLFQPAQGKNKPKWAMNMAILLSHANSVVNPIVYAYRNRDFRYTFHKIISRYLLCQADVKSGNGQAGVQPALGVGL
pEC50: −log10 of the molar value.
readout: pEC50

{"compound": "CN1CC(=O)N(Cc2cccc(F)c2Cc2nc3c(-c4ccncn4)c(-c4cccc(C#N)c4)nc(N)n3n2)C1=O [Example 87]", "readout": "pEC50", "measured": "> 8.00"}
{"compound": "N#Cc1cccc(-c2nc(N)n3nc(C(=O)c4ccccc4)nc3c2-c2ccncn2)c1 [Example 66]", "readout": "pEC50", "measured": "> 8.00"}
{"compound": "N#Cc1cccc(-c2nc(N)n3nc(Cc4ccccn4)nc3c2-c2ccncn2)c1 [Example 41]", "readout": "pEC50", "measured": "> 8.00"}
{"compound": "CCNC(=O)c1nc2c(-c3ccnc(OC)c3)c(-c3cccc(C#N)c3)nc(N)n2c1-c1ccccn1 [Example 19]", "readout": "pEC50", "measured": "6.00 to 7.00"}
{"compound": "Cc1nc(CO)c(-c2c(-c3cccc(C#N)c3)nc(N)n3nc(Cc4ncccc4F)nc23)o1 [Example 85]", "readout": "pEC50", "measured": "> 8.00"}
{"compound": "CCNC(=O)c1cn2c(N)nc(-c3ccccc3)c(C3=CCN(C(N)=O)CC3)c2n1 [Example 15]", "readout": "pEC50", "measured": "6.00 to 7.00"}

pEC50 for CCCn1nccc1-c1c(-c2cccc(C#N)c2)nc(N)n2cc(C(=O)NCC)nc12 [Example 37] ? > 8.00

Quick one: pEC50 of CCNC(=O)c1cn2c(N)nc(-c3cccc(C#N)c3)c(-c3ccc(C(N)=O)cc3)c2n1 [Example 32] ? 6.00 to 7.00

* * *

molecular target: human adenosine A2B receptor (Homo sapiens (Human)); assay: Adenosine A2B Receptor Cyclic AMP GS Assay; settings: HEK-293 cells expressing human A2B receptor; agonist NECA at 12 nM; cAMP accumulation (FRET); read-out: A2B_cAMP_EC50
readout: EC50

{"compound": "Cn1cc(-c2ccccc2Cc2nc3c(-c4ccncn4)c(-c4cccc(C#N)c4)nc(N)n3n2)cn1", "readout": "EC50", "measured": "< 0.01 µM"}
{"compound": "N#Cc1cccc(-c2nc(Nc3ncccc3C#N)n3nc(C(O)c4ccccc4)nc3c2-c2ccncn2)c1 (stereo not shown)", "readout": "EC50", "measured": "0.1 to 1 µM"}

Query for human adenosine A2B receptor (Homo sapiens (Human)): what EC50 does the record show for `CCNC(=O)c1cn2c(N)nc(-c3cccc(C#N)c3)c(-c3ccnn3C(C)C)c2n1` ? 0.01 to 0.1 µM

What is its EC50 for human adenosine A2B receptor (Homo sapiens (Human))? Entry: `CCNC(=O)c1cn2c(N)nc(-c3cccc(C#N)c3)c(-c3cnn4ccccc34)c2n1` 0.1 to 1 µM

* * *

target: human adenosine A2B receptor (Homo sapiens (Human)); experiment: Adenosine A2B Receptor Cyclic AMP GS Assay; conditions: HEK-293 cells expressing human A2B receptor; agonist NECA at 12 nM; cAMP accumulation (FRET); read-out: A2B_cAMP_EC50
readout: EC50

As a guide, the following entries are already answered.
{"compound structure string": "CCn1nccc1-c1c(-c2cccc(C#N)c2)nc(N)n2nc(Cc3ncccc3F)nc12", "readout": "EC50", "measured": "< 10 nM"}
{"compound structure string": "N#Cc1cccc(-c2nc(N)n3nc(CN4CC(O)C4)nc3c2-c2ccncn2)c1", "readout": "EC50", "measured": "100 to 1000 nM"}
{"compound structure string": "CCn1nccc1-c1c(-c2cccc(C#N)c2)nc(N)n2nc(Cc3noc4ccccc34)nc12", "readout": "EC50", "measured": "< 10 nM"}

Now, please, on to the next molecule.
What value of EC50 has been reported for the following molecule? `CCNC(=O)c1cn2c(N)nc(-c3cccc(C#N)c3)c(-c3ccnn3CC)c2n1` < 10 nM

* * *

biological target: human adenosine A2B receptor (Homo sapiens (Human)); test: Adenosine A2B Receptor Cyclic AMP GS Assay; conditions: HEK-293 cells expressing human A2B receptor; agonist NECA at 12 nM; cAMP accumulation (FRET); read-out: A2B_cAMP_EC50
readout: EC50

Recorded EC50, per entry:
{"compound": "N#Cc1cccc(-c2nc(N)n3nc(C4CCOC4)nc3c2-c2ccncc2)c1 (centres unmarked)", "experimental system": "human adenosine A2B receptor (Homo sapiens (Human))", "measured": "10 to 100 nM"}
{"compound": "Cc1cnccc1-c1c(-c2cccc(C#N)c2)nc(N)n2nc(Cc3ccccn3)nc12", "experimental system": "human adenosine A2B receptor (Homo sapiens (Human))", "measured": "< 10 nM"}
{"compound": "Cc1ncoc1-c1c(-c2cccc(C#N)c2)nc(N)n2nc(Cc3ncccc3CO)nc12", "experimental system": "human adenosine A2B receptor (Homo sapiens (Human))", "measured": "< 10 nM"}
{"compound": "Cc1cc(C(F)(F)F)nn1Cc1nc2c(-c3ccncn3)c(-c3cccc(C#N)c3)nc(N)n2n1", "experimental system": "human adenosine A2B receptor (Homo sapiens (Human))", "measured": "< 10 nM"}
{"compound": "N#Cc1cccc(-c2nc(N)n3nc(NC(C#N)c4ccccc4)nc3c2-c2ccncn2)c1 (centres unmarked)", "experimental system": "human adenosine A2B receptor (Homo sapiens (Human))", "measured": "10 to 100 nM"}

Quick one: EC50 for `N#Cc1cccc(-c2nc(N)n3nc(Cc4ccccn4)nc3c2-c2cnn3ncccc23)c1` ? 10 to 100 nM

Requested field: EC50. Item: `Cc1cc(-c2c(-c3cccc(C#N)c3)nc(N)n3ccnc23)cc(C)n1` 100 to 1000 nM

Param item = `CN(Cc1cccc(F)c1Cc1nc2c(-c3ccncn3)c(-c3cccc(C#N)c3)nc(N)n2n1)S(C)(=O)=O` ; retrieve measured EC50. < 10 nM

* * *

Parameter EC50: see the listing below.
Target: human adenosine A2B receptor (Homo sapiens (Human), UniProt P29275)
Assay: Adenosine A2B Receptor Cyclic AMP GS Assay
Format: cell-based
Settings: HEK-293 cells expressing human A2B receptor; agonist NECA at 12 nM; cAMP accumulation (FRET); read-out: A2B_cAMP_EC50
Method: Stably transfected HEK-293 cells expressing the human adenosine A2B receptor (Perkin Elmer) were maintained in MEM culture medium with 10% FBS and 100 μg/ml Geneticin (Life Technologies). 18 to 24 hours prior to assay, geneticin was removed from culture. The cisbio cAMP-GS Dynamic kit utilizing the FRET (Fluorescence Resonance Energy Transfer) technology was used to measure cAMP accumulation in the cells. […]

The cases that follow already have their EC50 on record.
{"molecule": "CCNC(=O)c1cn2c(N)nc(-c3cccc(C#N)c3)c(-c3ccncc3Cl)c2n1 [Example 29]", "EC50": "< 10 nM"}
{"molecule": "Nc1nc(-c2ccccc2F)c(-c2ccncc2)c2nccn12 [Example 7]", "EC50": "10 to 100 nM"}
{"molecule": "Cc1ncoc1-c1c(-c2cccc(C#N)c2F)nc(N)n2nc(Cc3ccccn3)nc12 [Example 90]", "EC50": "< 10 nM"}
{"molecule": "N#Cc1cccc(-c2nc(N)n3nc(Cc4ccccn4)nc3c2-c2ncncc2F)c1 [Example 46]", "EC50": "< 10 nM"}
{"molecule": "COCc1nc(C)oc1-c1c(-c2cccc(C#N)c2)nc(N)n2nc(Cc3ccccn3)nc12 [Example 63]", "EC50": "< 10 nM"}

Look up EC50: N#Cc1cccc(-c2nc(N)n3nc(Cc4ccccn4)nc3c2-c2cccc3ncccc23)c1 [Example 44] 10 to 100 nM
